Test system: Her2 protein in MCF-7 breast cancer cells
Assay: Cell-based Her2 degradation assay by Western Blot
Conditions: Homo sapiens, MCF7, 24 h, read-out: Her2 degradation WB IC50
pIC50: −log10 of the molar value.
measured_quantity: pIC50

For record "O=C1C=C(Nc2ccc(Cl)cc2)c2ccccc2C1=O" the listed pIC50 is > 5.00

For record "Cc1ccc(C)c(NC2=CC(=O)C(=O)c3ccccc32)c1" the listed pIC50 is < 4.52

For record "O=C1C=C(Nc2ccc(O)cc2)c2ccccc2C1=O" the listed pIC50 is ~5.00

For record "Cc1cccc(NC2=CC(=O)C(=O)c3ccccc32)c1" the listed pIC50 is ≤ 5.00

For record "CN(C1=CC(=O)C(=O)c2ccccc21)c1ccccc1" the listed pIC50 is ~5.00

For record "CCN(CC)C1=CC(=O)C(=O)c2ccccc21" the listed pIC50 is 5.00 to 5.30

----------
Tested on: Her2 protein in MCF-7 breast cancer cells
Experiment: Cell-based Her2 degradation assay by Western Blot
Settings: Homo sapiens, MCF7; Table 1; MCF-7 cells, 24 hours of compound treatment; read-out: Her2 degradation WB IC50
pIC50: −log10 of the molar value.
measured_quantity: pIC50

Illustrative cases are given below, each with its answer.
structure_smiles_string=O=C1C=C(Nc2cccc(C(=O)O)c2)c2ccccc2C1=O system_name="Her2 protein in MCF-7 breast cancer cells" measured_quantity=pIC50 measured_value="< 4.52"
structure_smiles_string=O=C1C=C(NCCCCC2CCCCC2)c2ccccc2C1=O system_name="Her2 protein in MCF-7 breast cancer cells" measured_quantity=pIC50 measured_value="< 4.52"
structure_smiles_string=Cc1ccnc(NC2=CC(=O)C(=O)c3ccccc32)c1 system_name="Her2 protein in MCF-7 breast cancer cells" measured_quantity=pIC50 measured_value=~5.00
structure_smiles_string=NC(=O)C(=O)CC(=O)c1ccccc1NC1=CC(=O)C(=O)c2ccccc21 system_name="Her2 protein in MCF-7 breast cancer cells" measured_quantity=pIC50 measured_value="< 4.52"
structure_smiles_string=O=C1C=C(NCCc2ccccc2)c2ccccc2C1=O system_name="Her2 protein in MCF-7 breast cancer cells" measured_quantity=pIC50 measured_value=~5.00
structure_smiles_string=O=C1C=C(Nc2ccccc2C(=O)CC(=O)C(=O)Nc2ccc(Cl)c(Cl)c2)c2ccccc2C1=O system_name="Her2 protein in MCF-7 breast cancer cells" measured_quantity=pIC50 measured_value="< 4.52"

For record "CC(C)c1cccc(C(C)C)c1NC1=CC(=O)C(=O)c2ccccc21" the listed pIC50 is < 4.52

For record "NC1=CC(=O)C(=O)c2ccccc21" the listed pIC50 is 4.52 to 5.00

For record "O=C1C=C(Nc2cccc(Br)c2)c2ccccc2C1=O" the listed pIC50 is < 4.52

----------
Tested on: Her2 protein in SKBr3 breast cancer cells
Assay: Cell-based Her2 degradation assay by Cytoblot
Settings: Homo sapiens, SK-BR-3, Table 2, values with asterisk, 24 hours
measured_quantity: pIC50
Entry type: numeric. Quantity: pIC50, the -log10 of concentration in molar units.

Illustrative cases are given below, each with its answer.
structure_smiles_string=O=C1C=C(N2CCC(Cc3ccccc3)CC2)c2ccccc2C1=O measured_quantity=pIC50 measured_value=5.65
structure_smiles_string=O=C1C=C(Nc2cc3c(cc2Br)OCO3)c2ccccc2C1=O measured_quantity=pIC50 measured_value=4.81
structure_smiles_string=CC(C)CN(CC(C)C)C1=CC(=O)C(=O)c2ccccc21 measured_quantity=pIC50 measured_value=4.73
structure_smiles_string=COc1cc(NC2=CC(=O)C(=O)c3ccccc32)cc(OC)c1OC measured_quantity=pIC50 measured_value=5.07
structure_smiles_string=O=C1C=C(N2CCN(Cc3cccc4ccccc34)CC2)c2ccccc2C1=O measured_quantity=pIC50 measured_value=5.37
structure_smiles_string=O=C1C=C(N2CCN(c3cccc4ccccc34)CC2)c2ccccc2C1=O measured_quantity=pIC50 measured_value=5.41
structure_smiles_string=COc1cc(NC2=CC(=O)C(=O)c3ccccc32)cc(OC)c1 measured_quantity=pIC50 measured_value=5.38
structure_smiles_string=COc1ccc(S(=O)(=O)N2CCN(C3=CC(=O)C(=O)c4ccccc43)CC2)cc1OC measured_quantity=pIC50 measured_value=4.54

For record "COc1ccc(NC2=CC(=O)C(=O)c3ccccc32)cc1" the listed pIC50 is 5.44

For record "Cc1cc(C)nc(NC2=CC(=O)C(=O)c3ccccc32)c1" the listed pIC50 is 4.94

For record "O=C1C=C(Nc2ccc3c(c2)OCO3)c2ccccc2C1=O" the listed pIC50 is 5.42

For record "O=C1C=C(N2CCNCC2)c2ccccc2C1=O" the listed pIC50 is 4.64

For record "COc1ccc(NC2=CC(=O)C(=O)c3ccccc32)cc1OC" the listed pIC50 is 5.32

----------
Let's look at some molecules and their measured pIC50.
System: Her2 protein in MCF-7 breast cancer cells
Assay: Cell-based Her2 degradation assay by Western Blot
Details: Homo sapiens, MCF7; Table 2, values without asterisk; MCF-7 cells, 24 hours; read-out: IC50, Her2 degradation WB
pIC50: −log10 of the molar value.

For record "O=C1C=C(N2CCC(Cc3ccccc3)CC2)c2ccccc2C1=O" the listed pIC50 is 5.60 to 5.90

For record "COc1ccccc1NC1=CC(=O)C(=O)c2ccccc21" the listed pIC50 is 5.60 to 5.90

For record "Cc1ccc(NC2=CC(=O)C(=O)c3ccccc32)c(C(=O)O)c1" the listed pIC50 is < 4.52

For record "COc1cc(NC2=CC(=O)C(=O)c3ccccc32)cc(OC)c1" the listed pIC50 is 5.30 to 5.60

----------
Test system: Her2 protein in MCF-7 breast cancer cells
Test: Cell-based Her2 degradation assay by Western Blot
Conditions: Homo sapiens, MCF7; Table 1; MCF-7 cells, 24 hours of compound treatment; read-out: Her2 degradation WB IC50
Source text: Addition of Hsp90 inhibitors to cancer cells induces the proteasomal degradation of a subset of proteins involved in signal transduction such as Raf1 kinase, Akt and certain transmembrane tyrosine kinases such as Her2. Thus, Her2 degradation in cells is a functional read-out of Hsp90 inhibition. Correlation between Hsp90 binding and Her2 degradation in cancer cells is indicative of a selective biological effect in these cells via Hsp90. […]
pIC50: −log10 of the molar value.
measured_quantity: pIC50

compound=CCN(CC)C1=C(Cl)C(=O)C(=O)c2cccnc21 measured_value="< 4.70"
compound=C=CCN(CC=C)C1=CC(=O)C(=O)c2ccccc21 measured_value=~5.00
compound=CC(C)(C)OC(=O)N1CCN(C2=CC(=O)C(=O)c3ccccc32)CC1 measured_value="5.00 to 5.30"
compound="CC(N)CCCNC1=CC(=O)C(=O)c2cccnc21 (stereo not drawn)" measured_value="5.30 to 5.60"
compound=COc1cccc(NC2=CC(=O)C(=O)c3ccccc32)c1 measured_value=~5.00
compound=CN1CCN(C2=CC(=O)C(=O)c3ccccc32)CC1 measured_value="5.00 to 5.30"
compound=N#CCCCCNC1=CC(=O)C(=O)c2cccnc21 measured_value=~5.00
compound=O=C1C=C(Nc2cccc(O)c2)c2ccccc2C1=O measured_value=~5.00

Below: the item to evaluate.
For record "O=C1C(=O)c2cccnc2C(NCc2ccccc2)=C1Cl" the listed pIC50 is ~5.60

----------
System: Her2 protein in MCF-7 breast cancer cells
Assay: Cell-based Her2 degradation assay by Western Blot
Conditions: Homo sapiens, MCF7, 24 h, read-out: Her2 degradation WB IC50
measured_quantity: IC50

Illustrative cases are given below, each with its answer.
molecule="Cc1ccc(NC2=CC(=O)C(=O)c3ccccc32)cc1 [Compound 15]" system_name="Her2 protein in MCF-7 breast cancer cells" measured_value="~10 µM"
molecule="O=C1C=C(Nc2ccccc2)c2ccccc2C1=O [Compound 32]" system_name="Her2 protein in MCF-7 breast cancer cells" measured_value="< 30 µM"
molecule="O=C1C=C(N2CCOCC2)c2ccccc2C1=O [Compound 23]" system_name="Her2 protein in MCF-7 breast cancer cells" measured_value="~10 µM"
molecule="CCc1cccc(CC)c1NC1=CC(=O)C(=O)c2ccccc21 [Compound 34]" system_name="Her2 protein in MCF-7 breast cancer cells" measured_value="> 30 µM"
molecule="Cc1cccc(C)c1NC1=CC(=O)C(=O)c2ccccc21 [Compound 26]" system_name="Her2 protein in MCF-7 breast cancer cells" measured_value="> 10 µM"

Below: the item to evaluate.
For record Cc1ccc(NC2=CC(=O)C(=O)c3ccccc32)c(C)c1 [Compound 13] the listed IC50 is < 5 µM

----------
System: Her2 protein in SKBr3 breast cancer cells
Assay: Cell-based Her2 degradation assay by Cytoblot
Conditions: Homo sapiens, SK-BR-3, Table 2, values with asterisk, 24 hours
Labelling field: enter yes (1) if recorded IC50 is less than 4 µM. Enter no (0) if it equals or exceeds that cut-off.

Example entries and their recorded answers appear below.
structure_smiles_string=O=C1C=C(N2CCN(S(=O)(=O)c3cc(Cl)cc(Cl)c3O)CC2)c2ccccc2C1=O system_name="Her2 protein in SKBr3 breast cancer cells" answer_label="no (0)"
structure_smiles_string=COc1ccccc1NC1=CC(=O)C(=O)c2ccccc21 system_name="Her2 protein in SKBr3 breast cancer cells" answer_label="yes (1)"
structure_smiles_string=O=C1C=C(N2CCC(O)(c3ccc(Cl)cc3)CC2)c2ccccc2C1=O system_name="Her2 protein in SKBr3 breast cancer cells" answer_label="yes (1)"
structure_smiles_string=O=C1C=C(N2CCN(Cc3cccc(C(F)(F)F)c3)CC2)c2ccccc2C1=O system_name="Her2 protein in SKBr3 breast cancer cells" answer_label="yes (1)"

Lab note: next molecule to report on.
(Q) Item "COc1cc(Br)c(NC2=CC(=O)C(=O)c3ccccc32)cc1OC" : IC50 beneath 4 µM, strictly?
(A) no (0)

The values you see were collected from patent US20120022070A1.
